Measured values drawn from PubChem BioAssay (NCI) for this set.

System: T-47D breast
Experiment: NCI tumour cell line growth inhibition, 48 h
READOUT_LABEL: TGI (µM)
Write the value in µM as a bare number.

Entry CCCCCCCCc1ccc(OCCOCC[N+](C)(C)CC)cc1 (tested in a mixture with another compound) , TGI reported as 13.7

Entry `c1ccc(-c2cc(-c3cccs3)c(-c3cccs3)s2)cc1` , TGI reported as 58.4

Entry `COc1cc(Br)cc2cc(C3=CSC4=NCCN34)c(=O)oc12` , TGI reported as 42.2

----------
Test system: A549 NSCLC
Experiment: NCI tumour cell line growth inhibition, 48 h
READOUT_LABEL: GI50

Entry `C=C(C)C(=O)Oc1ccc(N=Nc2ccc(C)cc2)ccc1=O` , GI50 reported as 3.81 µM

Entry `NS(=O)(=O)N(c1cc(C(F)(F)F)cc(C(F)(F)F)c1)C1CCN(Cc2ccc(F)cc2)CC1` , GI50 reported as 12.4 µM

Entry `COc1ccc(Nc2nccc(Nc3ccc4[nH]ncc4c3)n2)cc1` , GI50 reported as 3.46 µM

----------
Give measured TGI for each item. Keep answers brief.
System: 786-0 renal
Experiment: NCI tumour cell line growth inhibition, 48 h
Write the value in µM as a bare number.

Entry `CN(C)Cc1cc(/C(=C(\C#N)c2ccccc2)c2ccc(O)cc2)ccc1O` , TGI reported as 35.6

Entry `COc1cc2oc3c(c(=O)c2c(O)c1/C=C/C(C)C)CCC(C)(C)Oc1cc(O)ccc1-3` , TGI reported as 47.1

Entry COc1ccc(N2C(=O)C3CC(c4ccc(C)cc4)c4c([nH]c5ccccc45)C3C2=O)cc1 (stereo not given) , TGI reported as 26.6

Entry `Cc1c(-c2ccccc2)c(C#N)c2nnn(-c3ccc([N+](=O)[O-])cc3)c(=O)n12` , TGI reported as 18.4

----------
Tested on: EKVX NSCLC
Test: NCI tumour cell line growth inhibition, 48 h
Rule: YES for TGI not less than 10 µM, NO for anything less.

Reported TGI at or above 10 µM? `COC(=O)c1cc(-c2ccc(OC)c(OC)c2)oc1-c1ccc(OC)c(OC)c1` YES

Reported TGI at or above 10 µM? `COc1cc(-c2nc3ccccc3s2)ccc1OCCCCCOc1cc2c(cc1OC)C(=O)N1CCC[C@H]1C=N2` NO

Reported TGI at or above 10 µM? `Cc1cccc(NC(=O)/C=C/c2ccccc2)c1C` YES

Reported TGI at or above 10 µM? `O=C(O)c1cc2ccccc2c(N=Nc2ccc(S(=O)(=O)O)cc2)c1O` YES

Reported TGI at or above 10 µM? CC1CSC(=S)N1C(=O)N1C(=S)SCC1C (centres undefined) YES

Reported TGI at or above 10 µM? `O=C(c1c2c(cc3c1CC1(Cc4cc5c(cc4C1)CCCC5)C3)CCCC2)C(Br)Br` YES

Reported TGI at or above 10 µM? CC[C@@]1(O)C[C@H](OC2CC(N(C)C)C(OC3CC(O)C(OC4CC(O)C(O)C(C)O4)C(C)O3)C(C)O2)c2c(cc3c(c2O)C(=O)c2c(O)ccc(O)c2C3=O)[C@H]1C(=O)OC (some centres undefined) NO

Reported TGI at or above 10 µM? `Cc1cccc2c(C(=O)O[C@H](C(N)=O)[C@]3(C)CO3)cccc12` YES

Reported TGI at or above 10 µM? `COc1ccc2nc(NNC(=O)c3cnccn3)c3cccn3c2c1` YES

----------
Tested on: RXF 393 renal
Assay: NCI tumour cell line growth inhibition, 48 h
Rule: true (1) for TGI not less than 20 µM, false (0) for anything less.

Reported TGI at or above 20 µM? `Cc1c(C(=O)OCc2ccccc2)[n+](=O)c2ccccc2n1[O-]` true (1)

Reported TGI at or above 20 µM? O=C(OC1CC(n2cc(F)c(=O)[nH]c2=O)OC1CSC(=O)c1ccccc1)c1ccccc1 (configuration not stated) true (1)

Reported TGI at or above 20 µM? `O=C(N=Nc1c(O)[nH]c2c(Cl)cc(Cl)cc12)c1ccccc1O` true (1)

Reported TGI at or above 20 µM? `O=C(c1ccccc1)C(C(=O)c1ccccc1)c1nc2ccccc2sc1=O` true (1)

Reported TGI at or above 20 µM? `CCN1CCC(Oc2c(C#N)ncc3[nH]c4ncccc4c23)CC1` false (0)

Reported TGI at or above 20 µM? `CCOC(=O)COc1ccc(OCC(=O)OCC)c2c1C(=O)CCCC2=O` true (1)

Reported TGI at or above 20 µM? `COc1cc2oc3c(c(=O)c2c(O)c1/C=C/C(C)C)CCC(C)(C)Oc1cc(O)ccc1-3` true (1)

Reported TGI at or above 20 µM? Cc1ccc(NC(=O)OCC(COc2ccc(Cl)cc2)OC(=O)Nc2ccc(C)cc2)cc1 (configuration not stated) true (1)

Reported TGI at or above 20 µM? N=[N+]=NC1C(O)C(CO)OC1n1cnc2c(N)ncnc21 (configuration not stated) true (1)

Reported TGI at or above 20 µM? `COc1ccc(/C=C/c2nnc(/C=C/c3ccc(OC)c(OC)c3)o2)cc1OC` true (1)

Reported TGI at or above 20 µM? CCOc1ccccc1NC(=O)CC1Sc2ccccc2NC1=O (configuration not stated) true (1)

Reported TGI at or above 20 µM? O=C(O)CNC(=O)C(CSC(=O)OCC1c2ccccc2-c2ccccc21)NC(=O)CCC(NC(=O)OCC1c2ccccc2-c2ccccc21)C(=O)O (configuration not stated) true (1)

Reported TGI at or above 20 µM? `FC(F)(F)c1ccc(-c2cnc(Cl)nc2NC2CCCCCC2)cc1` true (1)

Reported TGI at or above 20 µM? `O=[N+]([O-])O` true (1)

Reported TGI at or above 20 µM? CCCCCCCCc1ccc(OCCOCC[N+](C)(C)CC)cc1 (tested in a mixture with another compound) true (1)

Reported TGI at or above 20 µM? `O=C(Oc1cccc2cccnc12)c1cc2cc(CCl)ccc2oc1=O` true (1)

Reported TGI at or above 20 µM? `Cc1[nH]c2nccn2c(=O)c1CCCl` true (1)

Reported TGI at or above 20 µM? `COc1ccc2nc(NNC(=O)c3cnccn3)c3cccn3c2c1` false (0)

Reported TGI at or above 20 µM? `C[C@H]1COC(c2ccccn2)=N1` true (1)

Reported TGI at or above 20 µM? `Oc1ccc(-c2nn3c(CCCCCCCCc4nnc5sc(-c6ccc(O)cc6)nn45)nnc3s2)cc1` true (1)

Reported TGI at or above 20 µM? `Cn1c(=O)c2nc3c4ccccc4c(=O)n(C)c3nc2n(C)c1=O` true (1)

Reported TGI at or above 20 µM? CC(C)C1CNC2N1C(=O)C2(C)OCc1ccccc1 (configuration not stated) true (1)

Reported TGI at or above 20 µM? CCCC(c1nnnn1C1CCCCC1)N1CCN(C(=O)c2ccco2)CC1 (configuration not stated) true (1)

Reported TGI at or above 20 µM? `Cc1nc2cc([N+](=O)[O-])ccc2c(NCCCN(C)C)c1C` true (1)

Reported TGI at or above 20 µM? `CCOC(=O)NC(Nc1ncn(C(NC(=O)OCC)(C(F)(F)F)C(F)(F)F)n1)(C(F)(F)F)C(F)(F)F` true (1)

Reported TGI at or above 20 µM? `CCCCc1ccc(-n2c(C)c(COC(=O)NC)c(COC(=O)NC)c2C)cc1` false (0)

Reported TGI at or above 20 µM? `CC(C)OC(=O)C1=C2c3ncccc3C(=O)N2[C@@H](Cl)[C@@H](Cl)[C@@H]1Cl` true (1)

Reported TGI at or above 20 µM? `CCCCNc1nc2nc[nH]c2c(=O)[nH]1` true (1)

Reported TGI at or above 20 µM? `Cc1c(-c2ccccc2)c(C#N)c2nnn(-c3ccc([N+](=O)[O-])cc3)c(=O)n12` true (1)

Reported TGI at or above 20 µM? `COc1ccc(NCc2cc(OC)c(OC)c(OC)c2)cc1` false (0)

Reported TGI at or above 20 µM? `O=C1Nc2ccccc2/C1=C/C(=N/c1nnc(-c2ccccc2)s1)c1ccccc1` false (0)

Reported TGI at or above 20 µM? `COc1cc(/C=N\O)cc(/C=N/O)c1O` true (1)

Reported TGI at or above 20 µM? `c1ccc(CSc2nc(N3CCCCC3)c3cn[nH]c3n2)cc1` true (1)

Reported TGI at or above 20 µM? `OC1CCN(c2c3ccccc3nc3ccccc23)CC1` false (0)

Reported TGI at or above 20 µM? CCN(CC)CCC(=O)NC1c2ccccc2Oc2c(C)cccc21 (configuration not stated) true (1)

Reported TGI at or above 20 µM? `N#C/C(=N/Nc1nc[nH]c1C(N)=O)C(=O)Nc1ccccc1` true (1)

Reported TGI at or above 20 µM? `N#CCCN(CCC#N)CCN(CCN(CCC#N)CCC#N)CCN(CCC#N)CCC#N` true (1)

Reported TGI at or above 20 µM? `C=C1C(=O)O[C@H]2[C@H]1CC/C(COC(=O)CCCCCCC(=O)OC/C1=C/CC[C@@]3(C)O[C@H]3[C@H]3OC(=O)C(=C)[C@@H]3CC1)=C\CC[C@@]1(C)O[C@@H]21` false (0)

Reported TGI at or above 20 µM? `O=C(O)c1cc2ccccc2c(N=Nc2ccc(S(=O)(=O)O)cc2)c1O` true (1)

Reported TGI at or above 20 µM? `CCOC(=O)/C=C(\C(=O)OCC)n1ccc(=O)n(Cc2cnnn2COCCOC(C)=O)c1=O` false (0)

Reported TGI at or above 20 µM? O=C1Cc2c([nH]c3ccccc23)C2(CC3CCCCN13)OCCO2 (configuration not stated) true (1)

Reported TGI at or above 20 µM? `O=C(Nc1ccccc1-c1nn(CO)c(=S)n(CO)c1=O)C(F)(F)F` true (1)
